Tested on: Fibroblast
Test: Multiplex assay against human fibroblast
Assay type: toxicity, cell-based
Conditions: 48 h, 10 µM, compound concentration 10 uM, replicate 2
# label = T if Population Mitochondria Different-Phenotype (%) < 4% else F

COMPOUND	CLASS ASSIGNMENT
CCOCCn1cc(C(=O)Nc2ccc(-n3nc(-c4cccnc4)cc3C(F)(F)F)cn2)ccc1=O [BI 1935]	T
CN1CCC[C@@H]1CCO[C@](C)(c1ccccc1)c1ccc(Cl)cc1.O=C(O)/C=C/C(=O)O [CLEMASTINE FUMARATE]	F
COc1cccc([C@@H](C)NCCCc2ccccc2Cl)c1.Cl [TECALCET HYDROCHLORIDE]	F
C=CC(=O)Nc1cccc(C(=O)Nc2ccc(Nc3cc(-c4[nH]c(SC)nc4C)ccn3)cc2)c1	T
c1cn2cc(-c3ccc4cn[nH]c4c3)nc(Nc3ccc(N4CCOCC4)cc3)c2n1 [ENTOSPLETINIB]	F
NC(=O)Nc1cc(-c2cccc(F)c2)sc1C(=O)N[C@H]1CCCNC1 [AZD-7762]	T

Next item in the queue.
For this compound, is Population Mitochondria Different-Phenotype (%) lower than 4%? CN(C)C(=O)N[C@H]1CC[C@H](CCN2CCN(c3cccc(Cl)c3Cl)CC2)CC1.Cl [CARIPRAZINE HYDROCHLORIDE]
F

====

System: U2OS
Assay: Multiplex assay against U2OS
Type: toxicity, cell-based
Conditions: human, 12 h, 1 µM, compound concentration 1 uM, replicate 1
METRIC NAME: Population Mitotic Cells (%)
Numbers only, in %.

Would you mind listing Population Mitotic Cells (%) for each of the following molecules?
1. Cc1c(-c2ccc(O)cc2)n(Cc2ccc(OCCN3CCCCCC3)cc2)c2ccc(O)cc12
2. CN1CCN(c2ccc(OC(F)(F)F)c(Nc3ncc4c(n3)-c3c(c(C(N)=O)nn3CCO)CC4)c2)CC1

1: 41; 2: 63

====

Tested on: HEK-293T
Test: Multiplex assay against HEK293T
Format: toxicity, cell-based
Details: human, 24 h, 10 µM, compound concentration 10 uM, replicate 1
METRIC NAME: Population Apoptotic (%)
Answers are plain numbers, in %.

Guide cases for Population Apoptotic (%), answers given:
COMPOUND	QUANTITATIVE RESULT
CC(C)NCC(O)COc1ccc(CCOCC2CC2)cc1.Cl (stereo unspecified) [BETAXOLOL HYDROCHLORIDE]	69
OC1(c2ccc(Cl)cc2)CCN(Cc2c[nH]c3ccccc23)CC1	76
Cc1[nH]c(/C=C2\C(=O)Nc3ccc(S(=O)(=O)N(C)c4cccc(Cl)c4)cc32)c(C)c1C(=O)N1CCN(C)CC1	88

Would you mind listing Population Apoptotic (%) for each of the following compounds?
1. CN(C)C(=O)N[C@H]1CC[C@H](CCN2CCN(c3cccc(Cl)c3Cl)CC2)CC1.Cl [CARIPRAZINE HYDROCHLORIDE]
2. Cc1c(-c2ccc(O)cc2)n(Cc2ccc(OCCN3CCCCCC3)cc2)c2ccc(O)cc12
3. COc1cc2nccc(Oc3ccc(NC(=O)Nc4cc(C)on4)c(Cl)c3)c2cc1OC.O
4. COc1cccc([C@@H](C)NCCCc2ccccc2Cl)c1.Cl [TECALCET HYDROCHLORIDE]

[90, 96, 89, 74]

Would you mind listing Population Apoptotic (%) for each of the following compounds?
1. CCN(CC)CCCCNc1ncc2cc(-c3cc(OC)cc(OC)c3)c(NC(=O)NC(C)(C)C)nc2n1
2. CN(C)CC#Cc1ccc(OCCCc2sc(N3CCc4cccc(C(=O)Nc5nc6ccccc6s5)c4C3)nc2C(=O)O)c(F)c1
3. COc1ncc(-c2ccc3nccc(-c4ccnnc4)c3c2)cc1NS(=O)(=O)c1ccc(F)cc1F
4. CC[C@H](C)C(=O)O[C@H]1C[C@@H](C)C=C2C=C[C@H](C)[C@H](CC[C@@H]3C[C@@H](O)CC(=O)O3)[C@H]21

1: 28; 2: 42; 3: 53; 4: 38

Would you mind listing Population Apoptotic (%) for each of the following compounds?
1. CN1CCCC(n2nc(Cc3ccc(Cl)cc3)c3ccccc3c2=O)CC1.Cl (stereo unspecified) [AZELASTINE HYDROCHLORIDE]
2. C=CC(=O)Nc1cc2c(Nc3ccc(F)c(Cl)c3)ncnc2cc1OCCCN1CCOCC1.Cl.Cl [CANERTINIB DIHYDROCHLORIDE]
3. O=C1NCN(c2ccccc2)C12CCN(CCCOc1ccc(F)cc1)CC2 [SPIRAMIDE]
4. C=CC(=O)Nc1ccc2ncnc(Nc3ccc(OCc4cccc(F)c4)c(Cl)c3)c2c1.Cc1ccc(S(=O)(=O)O)cc1

82
21
69
56
